- TEST_TARGET: M-phase phosphoprotein 8 (Homo sapiens) (UniProt Q99549)
- Sequence (Q99549 whole entry, looked up): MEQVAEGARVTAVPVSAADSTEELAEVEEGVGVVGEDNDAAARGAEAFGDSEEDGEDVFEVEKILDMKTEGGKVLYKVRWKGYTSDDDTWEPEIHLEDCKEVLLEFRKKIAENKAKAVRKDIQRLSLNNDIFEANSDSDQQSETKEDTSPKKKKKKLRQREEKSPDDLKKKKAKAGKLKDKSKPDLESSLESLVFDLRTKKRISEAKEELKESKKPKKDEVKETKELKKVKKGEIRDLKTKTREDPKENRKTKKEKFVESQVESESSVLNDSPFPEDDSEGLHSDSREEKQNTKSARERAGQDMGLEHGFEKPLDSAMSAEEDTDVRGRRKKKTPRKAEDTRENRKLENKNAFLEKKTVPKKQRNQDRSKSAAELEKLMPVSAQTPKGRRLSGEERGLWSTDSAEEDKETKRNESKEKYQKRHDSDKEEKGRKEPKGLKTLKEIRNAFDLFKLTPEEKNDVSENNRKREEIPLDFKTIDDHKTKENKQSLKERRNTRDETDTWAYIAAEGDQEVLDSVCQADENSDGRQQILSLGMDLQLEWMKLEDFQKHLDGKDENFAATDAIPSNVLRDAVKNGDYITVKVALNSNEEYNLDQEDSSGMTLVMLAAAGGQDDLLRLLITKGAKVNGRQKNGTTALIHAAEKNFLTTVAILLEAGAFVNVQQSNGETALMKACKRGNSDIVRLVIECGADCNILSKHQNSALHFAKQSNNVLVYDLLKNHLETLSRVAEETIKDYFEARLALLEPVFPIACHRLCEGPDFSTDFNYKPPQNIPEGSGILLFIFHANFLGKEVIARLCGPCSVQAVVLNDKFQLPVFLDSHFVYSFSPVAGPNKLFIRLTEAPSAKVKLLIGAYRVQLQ
- ASSAY_DETAILS: qHTS Validation Assay for Inhibitors for MPP8 Chromodomain Interactions with Methylated Histone Tails (AID 488949); further: nearly all actives have a fitted effect of over 55% in size
- CONDITION_LABEL: AlphaScreen MPP8 binding to H3K9me3 peptide; series mostly up to 57.1 µM
Inconclusive results are not listed. Calls of active or inactive are those of the source. The call rests on the fitted dose curve; in most records, active means well fitted inhibition curve with a large enough effect; inconclusive means small, poorly fitted or top-dose-only effect; inactive means no such curve, though single readings can be large or run the other way.
Possible outcomes: class 1 for active, class 0 for inactive

{"COMPOUND": "Cc1ccccc1CNc1ncnc2c1ncn2C1OC(CO)C(O)C1O (configuration not stated)", "TEST_TARGET": "M-phase phosphoprotein 8 (Homo sapiens) (UniProt Q99549)", "CLASS_NAME": "class 0"}
{"COMPOUND": "O=[N+]([O-])c1ccc(CSc2ncnc3c2ncn3[C@@H]2O[C@H](CO)[C@@H](O)[C@H]2O)cc1", "TEST_TARGET": "M-phase phosphoprotein 8 (Homo sapiens) (UniProt Q99549)", "CLASS_NAME": "class 0"}
{"COMPOUND": "Fc1cccc(/C=N/N=C/c2cccc(F)c2)c1", "TEST_TARGET": "M-phase phosphoprotein 8 (Homo sapiens) (UniProt Q99549)", "CLASS_NAME": "class 0"}
{"COMPOUND": "N#C/C(=C\\c1ccc(-c2cc(Cl)ccc2Cl)o1)C(=O)Nc1cccc2ncccc12", "TEST_TARGET": "M-phase phosphoprotein 8 (Homo sapiens) (UniProt Q99549)", "CLASS_NAME": "class 0"}
{"COMPOUND": "CC1(C)CCC=[N+]1[O-]", "TEST_TARGET": "M-phase phosphoprotein 8 (Homo sapiens) (UniProt Q99549)", "CLASS_NAME": "class 0"}
{"COMPOUND": "NS(=O)(=O)C#Cc1ccccc1", "TEST_TARGET": "M-phase phosphoprotein 8 (Homo sapiens) (UniProt Q99549)", "CLASS_NAME": "class 0"}
{"COMPOUND": "COc1ccc(NC(=O)/C=C/c2ccc(Cl)cc2)cc1", "TEST_TARGET": "M-phase phosphoprotein 8 (Homo sapiens) (UniProt Q99549)", "CLASS_NAME": "class 0"}
{"COMPOUND": "CC(=O)/C=C1\\C(=O)N(C)c2ccccc21", "TEST_TARGET": "M-phase phosphoprotein 8 (Homo sapiens) (UniProt Q99549)", "CLASS_NAME": "class 0"}
{"COMPOUND": "CN1CCc2cc(O)c(O)cc2C(c2ccccc2)C1 (configuration not stated)", "TEST_TARGET": "M-phase phosphoprotein 8 (Homo sapiens) (UniProt Q99549)", "CLASS_NAME": "class 0"}
{"COMPOUND": "CC(COc1ccc(/C=C/c2ccccc2)cc1)[N+](C)(C)C (configuration not stated)", "TEST_TARGET": "M-phase phosphoprotein 8 (Homo sapiens) (UniProt Q99549)", "CLASS_NAME": "class 0"}
{"COMPOUND": "CN1C2CCC1CC(OC(=O)C(O)c1ccccc1)C2 (configuration not stated)", "TEST_TARGET": "M-phase phosphoprotein 8 (Homo sapiens) (UniProt Q99549)", "CLASS_NAME": "class 0"}
{"COMPOUND": "C[C@@H](NC(=O)/C(C#N)=C/c1ccc(O)c(O)c1)c1ccccc1", "TEST_TARGET": "M-phase phosphoprotein 8 (Homo sapiens) (UniProt Q99549)", "CLASS_NAME": "class 1"}
